Target: T1, human MSLN-R2-his protein (human, UniProt Q13421 391-486)
T1 construct: Self-made in HEK293E cells; also called human MSLN-R2 protein; hMSLN-R2-his; not shown: His tag
T1 sequence (Q13421 other isoform, or with tags, fused parts or gaps): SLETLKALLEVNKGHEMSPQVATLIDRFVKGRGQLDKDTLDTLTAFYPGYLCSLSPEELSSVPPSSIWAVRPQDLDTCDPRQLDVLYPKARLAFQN
Experiment: ELISA on coated antigen, no antibody (column none)
OUTCOME MEASURE: OD450 (OD450)
Express your answer in OD450, writing the number without its unit.

S009-F2.13.3 (antibody, human IgG1, kappa, V domains shown, Human-murine chimeric antibody: murine VH/VL on human IgG1 heavy and kappa light constant regions) VH: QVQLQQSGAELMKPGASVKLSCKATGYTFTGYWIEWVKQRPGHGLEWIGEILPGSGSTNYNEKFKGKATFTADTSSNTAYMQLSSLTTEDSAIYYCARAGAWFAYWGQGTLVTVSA VL: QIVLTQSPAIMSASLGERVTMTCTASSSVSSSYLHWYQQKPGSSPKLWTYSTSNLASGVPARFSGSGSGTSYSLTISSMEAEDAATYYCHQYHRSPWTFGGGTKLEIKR
0.06
S009-F2.16.10 (antibody, human IgG1, kappa, V domains shown, Human-murine chimeric antibody: murine VH/VL on human IgG1 heavy and kappa light constant regions) VH: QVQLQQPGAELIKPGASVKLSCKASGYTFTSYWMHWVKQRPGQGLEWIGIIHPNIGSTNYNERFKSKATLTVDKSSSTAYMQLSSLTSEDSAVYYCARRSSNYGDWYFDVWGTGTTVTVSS VL: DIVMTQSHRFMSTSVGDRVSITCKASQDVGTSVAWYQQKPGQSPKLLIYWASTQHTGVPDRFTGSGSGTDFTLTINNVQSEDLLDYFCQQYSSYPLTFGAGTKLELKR
0.06
S009-F2.23.12 (antibody, human IgG1, kappa, V domains shown, Human-murine chimeric antibody: murine VH/VL on human IgG1 heavy and kappa light constant regions) VH: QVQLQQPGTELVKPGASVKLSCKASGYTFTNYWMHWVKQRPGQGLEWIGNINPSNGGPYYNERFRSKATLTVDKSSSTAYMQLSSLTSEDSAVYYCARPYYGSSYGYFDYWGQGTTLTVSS VL: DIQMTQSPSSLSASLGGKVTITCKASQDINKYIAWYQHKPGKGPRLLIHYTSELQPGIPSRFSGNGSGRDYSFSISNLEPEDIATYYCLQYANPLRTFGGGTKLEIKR
0.06
S009-F2.21.4 (antibody, human IgG1, kappa, V domains shown, Human-murine chimeric antibody: murine VH/VL on human IgG1 heavy and kappa light constant regions) VH: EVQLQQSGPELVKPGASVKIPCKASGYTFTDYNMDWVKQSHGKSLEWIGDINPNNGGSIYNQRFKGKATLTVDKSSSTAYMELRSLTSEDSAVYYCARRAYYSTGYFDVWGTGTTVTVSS VL: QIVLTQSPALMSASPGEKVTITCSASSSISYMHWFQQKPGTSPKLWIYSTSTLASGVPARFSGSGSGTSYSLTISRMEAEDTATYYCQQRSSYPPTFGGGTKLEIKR
0.06

Input: Need OD450 of S009-F2.58.8 (antibody, human IgG1, kappa, V domains shown, Human-murine chimeric antibody: murine VH/VL on human IgG1 heavy and kappa light constant regions) VH: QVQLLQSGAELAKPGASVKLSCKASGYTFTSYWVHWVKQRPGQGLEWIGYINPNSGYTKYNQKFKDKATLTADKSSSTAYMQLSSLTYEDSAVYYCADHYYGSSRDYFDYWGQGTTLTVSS VL: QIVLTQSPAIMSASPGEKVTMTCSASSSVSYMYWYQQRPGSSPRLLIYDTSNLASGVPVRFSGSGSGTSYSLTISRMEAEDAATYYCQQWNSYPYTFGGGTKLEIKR , thanks.
Output: 0.06

Values were extracted from patent US20250250357A1.
